Taken from patent US20230183243A1.

# Tested on: MDA-MB-231 cells
# EXPERIMENTAL_DETAILS: Inhibition of proliferation of triple-negative breast cancer cells, CellTiter-Glo
# Type: cell-based
# CONDITION_DETAILS: Homo sapiens, 120 h; MDA-MB-231, cultured for 5 days
PROPERTY: GI50

[
  {
    "COMPOUND": "COc1cc(-c2cnn(C)c2)ccc1Nc1nc(NC2CCCC2)c2c(C#N)c[nH]c2n1",
    "SYSTEM_TESTED": "MDA-MB-231 cells",
    "GI50": "< 100 nM"
  }
]

Dear colleague, I am looking for the recorded GI50 of the following compound: COc1cc(-c2ccnn2C)ccc1Nc1nc(NC2COC2)c2c(C#N)c[nH]c2n1
> 1000 nM

Param item: COc1cc(-c2ccnn2C)ccc1Nc1cc(NC2CCCC2)c2c(C#N)c[nH]c2n1
< 100 nM

What do you get for COc1cc(-c2ccnn2C)ccc1Nc1nc(NC2CCCC(F)(F)C2)c2c(C#N)c[nH]c2n1 (stereo not shown) ?
< 100 nM
